# Test system: OVCAR-5 ovarian
# measurement_description: NCI tumour cell line growth inhibition, 48 h
measured_property: TGI

[[record]]
compound = "C=C(Cl)C(C)(Cl)CCC(Cl)C(C)(C)Cl (centres undefined)"
measured_property = "TGI"
measured_result = "> 100 µM"

[[record]]
compound = "NC(=O)/N=C(\\N)NC(=O)c1ccccc1"
measured_property = "TGI"
measured_result = "> 100 µM"

[[record]]
compound = "O=C(OC(C(=O)O)C(OC(=O)c1ccccc1)C(=O)O)c1ccccc1 (centres undefined) (tested in a mixture with another compound)"
measured_property = "TGI"
measured_result = "> 100 µM"

[[record]]
compound = "CS(=O)(=O)c1ccc(N/N=C/c2c(-c3ccc(S(C)(=O)=O)cc3)[nH]c3ccc(F)cc23)cc1"
measured_property = "TGI"
measured_result = "> 50 µM"

[[record]]
compound = "COc1ccccc1C1C2=C(COC2=O)OC(C)(C)Oc2cc3c(cc21)OCO3 (centres undefined)"
measured_property = "TGI"
measured_result = "> 100 µM"

[[record]]
compound = "CCCCOC(=O)CN1C(=O)c2ccccc2C1=O"
measured_property = "TGI"
measured_result = "> 100 µM"

[[record]]
compound = "O=C1C(=O)c2cc([N+](=O)[O-])ccc2-c2ccccc21"
measured_property = "TGI"
measured_result = "3.36 µM"

[[record]]
compound = "C=CCNC1=C2C[C@@H](C)C[C@@H](OC)[C@H](OC(=O)CN(C)C)[C@H](C)/C=C(\\C)[C@@H](OC(N)=O)[C@H](OC)/C=C\\C=C(/C)C(=O)NC(=CC1=O)C2=O"
measured_property = "TGI"
measured_result = "25.7 µM"

[[record]]
compound = "CCOC(=O)Cn1c(=O)c2nc(SC)sc2n(-c2ccc(C)cc2)c1=S"
measured_property = "TGI"
measured_result = "> 100 µM"

[[record]]
compound = "CCCCCCCC[N+](C)(C)Cc1ccc(C[N+](C)(C)CCCCCCCC)cc1"
measured_property = "TGI"
measured_result = "> 100 µM"

[[record]]
compound = "O=C(O)c1ccc(Nc2ccnc3cc(Cl)ccc23)cc1O"
measured_property = "TGI"
measured_result = "> 100 µM"

[[record]]
compound = "Nn1c(CCCl)nc2c(Br)cc(Br)cc2c1=O"
measured_property = "TGI"
measured_result = "> 71.5 µM"

[[record]]
compound = "C#CCCCC(=C)C[C@H](OCc1ccccc1)[C@H]1OC(=O)[C@@H]1C"
measured_property = "TGI"
measured_result = "> 100 µM"

[[record]]
compound = "Cc1cc(N(CCOS(C)(=O)=O)CCOS(C)(=O)=O)ccc1C=Nc1ccc(-c2csc(-c3ccccc3)n2)c(Cl)c1"
measured_property = "TGI"
measured_result = "55 µM"

[[record]]
compound = "C[C@]12CCC3c4ccc(OC(=O)c5ccccc5)cc4CC[C@H]3C1CC[C@@H]2OC(=O)C12OC1CCC2=O (some centres undefined)"
measured_property = "TGI"
measured_result = "21.4 µM"

[[record]]
compound = "COc1cc(-c2c[nH]c3ccccc23)nc(-c2c[nH]c3ccccc23)n1"
measured_property = "TGI"
measured_result = "22.1 µM"

[[record]]
compound = "CCCCCCCC/C=C\\CCCCCCCCNc1ccn(C2OC(COP(=O)(O)OC3CC(n4cc(F)c(=O)[nH]c4=O)OC3CO)C(O)C2O)c(=O)n1 (centres undefined)"
measured_property = "TGI"
measured_result = "> 100 µM"

[[record]]
compound = "COc1ccc(OC)c(/C=C/c2nnc(Nc3ccc(Cl)cc3)o2)c1"
measured_property = "TGI"
measured_result = "> 100 µM"

[[record]]
compound = "CCc1ccccc1NC(=O)/C(CC(=O)c1c(C)n([O-])c2ccccc2[n+]1=O)=N\\NS(=O)(=O)c1ccc(C)cc1"
measured_property = "TGI"
measured_result = "> 100 µM"


This collection of values is drawn from PubChem BioAssay (NCI).
